Each item that follows carries a reported RBD protein concentration.
# Tested on: HEK293T cells (HEK293T细胞)
# Assay type: cell-based
# cond: RBD mRNA-LNP, mRNA 1 μg, 24 h, cell supernatant
Please respond with the number in ng/mL and leave the unit unwritten.

CCCCCCCCC(CCCCCC)COC(=O)CCCCCN(CCCCCC(=O)OCC(CCCCCC)CCCCCCCC)CCCN(CCO)CCO (stereo not drawn) [U-101]; 50.6

Please turn your attention to the following entry.
Any idea what its RBD protein concentration is? The compound is CCCCCCCCCCCCOC(=O)CCCCCN(CCCCCC(=O)OCC(CCCCCC)CCCCCCCC)CCCN(CCO)CCO (stereo not drawn) [U-103]
49.6
